# assayRemarks: Tmax in Brown Norway rat iris administered topically
# Type: ADME, tissue-based
# statedConditions: topical or ocular
measuredAttribute: Tmax (min)
Field format: number, assumed min, no unit text.

Enquiry: Entry CCOC(=O)c1c(C)cc2nc(COC(=O)NCCO)n(-c3ccccc3S(=O)(=O)NC)c(=O)c2c1C has what Tmax?
Return: 4.98

* * *

# assayRemarks: AUC (0 to last) in Brown Norway rat cornea administered topically
# Format: ADME, tissue-based
# Design: time 0 - last
# statedConditions: topical or ocular
measuredAttribute: AUC(0-t) (µM·h)
Field format: number, assumed µM·h, no unit text.

Enquiry: Entry CCOC(=O)c1c(C)cc2nc(COC(=O)NCCO)n(-c3ccccc3S(=O)(=O)NC)c(=O)c2c1C has what AUC(0-t)?
Return: 0.043
